Tested on: K4 kissing-loop RNA reporter;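 also: bound reporter read as fluorescence of individual clusters on recovered sequencing chips by microscopy, with normalized cluster intensities fitted with a binding model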
Experiment: apparent KD of K4 kissing-loop reporter; higher = weaker reporter binding
Details: Eterna round: R107; input ligand: none
Measured apparent KD of K4 kissing-loop reporter values are reported for all entries that follow.
Field format: number, assumed nM, no unit text.

Chain sequence	Property label	Observed
GAGAAUAACGGAAGGAGCGAGUAAUGGAGUGAUGUUCCAAUCAAUAAAACACAAUAAAAUACUCAGGUAGGUCGCCGUAGUAGUU [Exclusion Argiie B GF 12]	apparent KD of K4 kissing-loop reporter	323
AAGUCACAGGCAGGAUAUGCUUAGUAAUAAGGCCAUAUAUACGUAUAGAGUGAUGUUUUGUACCAGGCAGAAGGGCUACAUCCGU [FMN B Excl V3 (+2GCs)]	apparent KD of K4 kissing-loop reporter	882
UGAUGUUUAGGUCACCCAGUGAUGUUGGAAGGAGCGUGCGAAAGCACAGGUAGGUCGCCAAUCUCCUUGUGACCUGAGCAUCUAA [#SwitchBubble 14 #K4Early]	apparent KD of K4 kissing-loop reporter	1050
GCGCGUGUUAAAGGAUAUAGCAGGUGAUACAAGAAAGUGAGUGAUGUUUAUGUAGAUGAUGAUAUGUUAGAAGGUUAACAAGCGC [abcdefghijklmnopq]	apparent KD of K4 kissing-loop reporter	847
UGCAGUGAUGUUGCUAUUUGUCUUGAUUAACGAGGACCGGUACGGCCGCCACUCGAUUUCUCUCUAAUCGAGUAUGUUGUUUAGU [#19 K4 Tryptophan A Exclusion]	apparent KD of K4 kissing-loop reporter	162
CCGCUACCCUCAGGAUAUUAAAUAUUAGUGAUGUUAGUAAACCGAUGGCGAAAGCCAUCGGUAUGUUGAGAAGGGAGGGUAGCGG [whbob_SS_FMNB__2th197]	apparent KD of K4 kissing-loop reporter	2240
UAAGAGGACCACUGCAAGAGUCCUCGAAUACGAGGACCGGUACGGCCGCCACUCGAUAAUUUGCAGUGAUGUUGCAAGUAAGAAU [BrourdMod 5 - Jieux - Same State Tryptophan A]	apparent KD of K4 kissing-loop reporter	130
GGCCGGAAGGCGAGCGCUCCCACUCCGGAAGGAGCGCCCGGAAGGGCAGGUAGGUCGCCGGAGUGAUGUUCCGGUGGAGGGCUCG [#2 Exclusion - Arginine A Attempt #19 (Inspired by Omei)]	apparent KD of K4 kissing-loop reporter	80.4
AGACUACUGAUAGGAUAUAACAUACUACUCGUAUACCGAAAGGUAUACGAGACCCUUCUAGUGAUGUUAGAAGGGUCGGUAGUCA [Omei KL FMN B Exc B v8]	apparent KD of K4 kissing-loop reporter	68.1
GAUGUCUAGAGAUCAUCUAGACACCUAGAUACCAGCAGAUAUAUCUGCCCUUGGCAGCUAGAACCAGUGAUGUUGGUAUAUGCUC [Theo A SS t3]	apparent KD of K4 kissing-loop reporter	307

Report apparent KD of K4 kissing-loop reporter on K4 kissing-loop RNA reporter for this entry: UUGGAAAUCAGAAGGAGCGUCUAAAAUGAAGGAACCAGUGAUGUUGGUUUUAUUUAAUGAAGACAGGUAGGUCGCUGAAUUUUUA [Same State Arginie B GF 18] 94.4

State apparent KD of K4 kissing-loop reporter on K4 kissing-loop RNA reporter. Entry: GGGCCGCGCGCGGCCGCCACUCAGUGAUGUUGGGUGAGCUUUGCUGUGCGUGCUGUUUCGUGACGGAGGACCGGGCGCGCGGCCU [BDazzled 2] 121

Send back K4 kissing-loop RNA reporter apparent KD of K4 kissing-loop reporter of GUCCACACUGCAGGAUAUGGAGGUAUAGCGAGGGAGUUUGGAAGCACACCUCUGGCAGUGAUGUUGCCAGAAGGGCGGUGCGGCG [Rauserin] only. 99.2

Write down measured apparent KD of K4 kissing-loop reporter (K4 kissing-loop RNA reporter) for this sequence. AGACUACUGAUAGGAUAUAACAUCCUAGUCGUAUACCGAAAGGUAUACGAUAUCCUUCUAGUGAUGUUAGAAGGGUCGGUAGUCA [Omei KL FMN B Exc B v10] 103

Tell me its apparent KD of K4 kissing-loop reporter on K4 kissing-loop RNA reporter: UUUGGAAGCGGUGUUGAUUAGGGAGCGGAAGGAGCGCCGAUUAUGGCAGGUAGGUCGCCGGAAUGUAGUGAUGUUGCAUAGAGGU [ExArgA.X] 240
